# Tested on: OVCAR-4
# Measurement Protocol: NCI tumour cell line growth inhibition, 48 h
The source made the active and inactive calls. Cut-off read from the data, not from the text of the source: active = GI50 up to about 1.1 µM and inactive = higher.
Property Name: GI50

Please fill in: GI50 reported for CCCCc1ccc(-n2sc3ncccc3c2=O)cc1 = 13.6 µM (inactive)

The recorded GI50 for entry CC(=O)C1(O)CC2(c3ccccc3)C(=O)C1(c1ccccc1)C(c1ccccc1)=C2c1ccccc1 (stereo not drawn) equals 13.5 µM (inactive)

The measured GI50 associated with O=C(NNC(=O)c1csc(NC(=S)NC2CCCCC2)n1)c1ccccc1 reads 3.34 µM (inactive)

Memo: O=C1CCC2SC1CCC2=O , reported GI50: > 100 µM (inactive)

// field: GI50; key: Clc1ccccc1/C=C/c1nsc(/C=C/c2ccccc2Cl)n1 ; value = 81.7 µM (inactive)

In plain terms, Cc1ccc(S(=O)(=O)N/N=C2/C(=O)Nc3c(Cl)cc(Cl)cc32)cc1 has a documented GI50 of > 100 µM (inactive)

The molecule listed as COc1cc(C2c3cc4c(cc3OC(N3CCOCC3)C2C)OCO4)cc(OC)c1OC (stereo not drawn) shows GI50 equal to > 23.7 µM (inactive)

GI50 reading for CCC1C(C)c2c([nH]c3ccccc23)C2C(=O)N(c3ccccc3)C(=O)C21 (stereo not drawn) : 13.4 µM (inactive)

So for CC(=O)/C(=C/N1C(=O)CC(=O)NC1=S)C(=O)Nc1ccccc1C , the logged GI50 turned out to be 57.5 µM (inactive)

GI50 in this record for N#CC12C(=O)N3C(=NC(c4ccccc4)NC3c3ccccc3)C1(C#N)C(c1ccccc1)NC1=C2CCCC1 (stereo not drawn) : > 100 µM (inactive)

Per the record, Clc1ccc(COc2ccccc2/C=N/c2c(-c3ccco3)nc3ccccn23)c(Cl)c1 has GI50 of 24.9 µM (inactive)

So for N#C/C(=C/NC(=S)c1ccncc1)C(N)=O , the logged GI50 turned out to be > 100 µM (inactive)

Form: molecule = CCCCN/N=N/c1cn(C2OC(CO)C(O)C2O)c(=O)[nH]c1=O (stereo not drawn) ; GI50 = > 100 µM (inactive)

For C=CC[C@]12C[C@@H](C(=O)OC)N(C(=O)OC)[C@H]1N(S(=O)(=O)c1ccccc1)c1ccccc12 the molecule record lists GI50 as 47.1 µM (inactive)

The recorded GI50 for entry CSC1=N/C(=C\c2ccccc2)C(=O)N1CN1CCCCC1 equals 16.4 µM (inactive)

Sample O=C(O)CCSC(=S)Nc1ccc([N+](=O)[O-])cc1 ; GI50 observed: > 56.5 µM (inactive)

Documented GI50 of N=C(N)c1csc([C@@H]2O[C@H](CO)[C@@H](O)[C@H]2O)n1 : > 100 µM (inactive)

molecule CCOC(=O)C1C(c2ccc(OC)cc2)c2c(nn(-c3ccccc3)c2O)CC1(O)OCC (stereo not drawn) , GI50 observed: > 100 µM (inactive)

====

# System: SF-295
# Measurement Protocol: NCI tumour cell line growth inhibition, 48 h
Activity calls are given as the source filed them. Cut-off read from the data, not from the text of the source: active = GI50 up to about 1.1 µM and inactive = higher.
Property Name: GI50

According to the records, this compound FC(F)(F)c1ccc2nc3n(c2c1)C(c1c(Cl)cccc1Cl)SC3 (centres undefined) displays GI50 of 16.4 µM (inactive)

Lookup result for O=C1CC2(CCC(O)(c3ccccc3)C(C(=O)c3ccccc3)C2)C(=O)c2ccccc2N1 (centres undefined) ; measured GI50: > 100 µM (inactive)

get_value(item= Clc1ccccc1/C=C/c1nsc(/C=C/c2ccccc2Cl)n1 , readout=GI50) returns 54 µM (inactive)

Measured GI50, CSC1=N/C(=C\c2ccccc2)C(=O)N1CN1CCCCC1 : > 100 µM (inactive)

====

# Tested on: SK-OV-3
# Measurement Protocol: NCI tumour cell line growth inhibition, 48 h
Calls of active or inactive are those of the source. No stated cut-off is given here; in the data, active = GI50 up to about 1.1 µM and inactive = higher.
Property Name: GI50

get_value(item= COC(CC1(CCNc2ccccc2)C(=O)N(COCC[Si](C)(C)C)c2ccccc21)OC (centres undefined) , readout=GI50) returns 15.2 µM (inactive)

GI50 for CCC1(C)NN=c2s/c(=C/c3ccc(OC)cc3)c(=O)n2N1 (centres undefined) is > 100 µM (inactive)

Quick note, GI50 for CCCn1c(=O)c2nn3c(=O)n(CCC)c(=O)c3nn2c1=O landed at > 100 µM (inactive)

Per the record, Cc1c(C)c(C)n(C2OC(CO)C(O)C(O)C2O)c(=S)c1C#N (centres undefined) has GI50 of > 100 µM (inactive)

Short answer for O=C(Nc1ccc(C(F)(F)F)cc1)NC(F)(F)F : GI50 was > 100 µM (inactive)

// CCOc1ccc2c(c1)[n+]([O-])c(-c1ccccc1)c(N)[n+]2[O-] : GI50 value = > 100 µM (inactive)

For this compound ( CC1=NC2(C(=O)O)C3(C(=O)O)N=C(C)OC3(C(F)(F)F)C2(C(F)(F)F)O1 (centres undefined) ), measured GI50 is > 100 µM (inactive)

The compound CCOC(=O)c1ccc(/N=c2\oc3ccc(OC)cc3cc2-c2nc3ccccc3[nH]2)cc1 showed GI50 equal to 73.8 µM (inactive)

Record N#C/C(=C/Sc1ccccc1)C(=O)O , field GI50: 59.4 µM (inactive)

The reported value for N#CC(N)(C(=O)CCC(=O)Nc1cccc(Cl)c1)c1ccc(Cl)cc1 (centres undefined) in terms of GI50 is > 100 µM (inactive)

# GI50 (compound: CC(C)CCCC(C)[C@H]1CCC2[C@@H]3CCC4Cc5nc6c(nc5C[C@]4(C)C3CC[C@@]21C)CC1CC[C@@H]2C(C[C@@H](O)[C@@]3(C)C2C[C@@H]2OC4(CCC(C)CO4)C(C)[C@@H]23)[C@@]1(C)C6 (some centres undefined) ) is 94.4 µM (inactive)

// O=C(O)CN1CCN2CCCCCCCCN(CC1)CCN(CC(=O)O)CC2 : GI50 value = > 100 µM (inactive)

Recorded result, O=C1C=CC(=O)c2c1ccc1c3ccccc3n(CCCCCCCCn3c4ccccc4c4ccc5c(c43)C(=O)C=CC5=O)c21 , GI50: > 100 µM (inactive)

Sure, the documented GI50 for CC1CC2OC(=N)C1(C#N)C2(C#N)C#N (centres undefined) is > 100 µM (inactive)

====

I'd appreciate it if you could supply GI50 values for the items below.
# Tested on: SK-MEL-5
# Measurement Protocol: NCI tumour cell line growth inhibition, 48 h
Activity calls are given as the source filed them. Cut-off read from the data, not from the text of the source: active = GI50 up to about 1.1 µM and inactive = higher. Non-standard residues stand in square brackets, D forms with d. Residues, ends and D or L forms follow the SMILES beside them. *: point of attachment. NMeF = CN[CH](Cc1ccccc1)C(=O)O; NMeV = CN[CH](C(=O)O)C(C)C; Boc = CC(C)(C)OC(=O)*

Value of measured GI50 for the entry Cc1c(-c2cc3n(n2)C(c2cccs2)C(C#N)=C(c2ccccc2)N3)c(=O)n(-c2ccccc2)n1C (stereo not given) : 28.8 µM (inactive)

Recorded GI50 (molecule O=S1(=O)NN=C(NCc2ccc(Cl)c(Cl)c2)c2ccccc21 ): 86.9 µM (inactive)

GI50 measured on COC(=O)C1C(O)CC(c2ccccn2)N(Cc2ccccc2)C1c1ccccn1 (stereo not given) = 84.3 µM (inactive)

// GI50 lookup, molecule = Cc1ccc2nc(C(C)C)c(=O)[nH]c2c1 , result: > 100 µM (inactive)

Sure, the documented GI50 for N#CC(NNC(=O)Cc1ccccc1)c1cccc(O)c1 (stereo not given) is > 100 µM (inactive)

The molecule listed as CC(C)C(NC(=O)OC(C)(C)C)C(=O)N(C)C(Cc1ccccc1)C(=O)N(C)C(C(=O)O)C(C)C (stereo not drawn) (Boc-Val-[NMeF]-[NMeV]-OH; configuration not given here) shows GI50 equal to > 100 µM (inactive)

Summary for this molecule, CC(CC=O)Nc1nn2c(=O)c3ccccc3nc2s1 (stereo not given) : GI50 is > 100 µM (inactive)

// GI50 value for C=C1C(=O)OC2C1C(OC(=O)/C(C)=C/C)CC1(C)C(=O)CCC(=C)C21 (stereo not given) : 7.64 µM (inactive)

# GI50 (molecule: CN(/N=C/c1ccccn1)C1=NCCCN1 ) is > 100 µM (inactive)

Item: Clc1cc(OCc2nn3c(Cc4ccccc4)nnc3s2)ccc1OCc1nn2c(Cc3ccccc3)nnc2s1 | GI50: 25.4 µM (inactive)

====

# Test system: ACHN
# Measurement Protocol: NCI tumour cell line growth inhibition, 48 h
Calls of active or inactive are those of the source. No stated cut-off is given here; in the data, active = GI50 up to about 1.1 µM and inactive = higher.
Property Name: GI50

Lab book: GI50 of Cc1nnc2n1N=C(c1ccccc1)/C(=C/c1ccc(-c3ccc(Cl)cc3)o1)S2 noted as 13.5 µM (inactive)

What the record says about O=[N+]([O-])c1cc(Br)cc2cc(Cl)cnc12 : GI50 is > 100 µM (inactive)

// O=C(O)C1C2CCC(C2)C1c1ccccc1 (stereo not drawn) : GI50 value = > 100 µM (inactive)

For reference, reported GI50 for COc1cccc2c(=O)oc(-c3ccccc3C)nc12 stands at 43 µM (inactive)

The reported value for CCOC(=O)/C=C(\C)c1ccc(C)cc1C in terms of GI50 is > 100 µM (inactive)

// recorded GI50 for COc1ccc(/N=C\c2ccc(N(CCC#N)CCC#N)cc2)cc1 : 26.7 µM (inactive)

get_value(item= NNC(=S)N/N=C(\c1nc2ccc(Cl)cc2nc1O)C(O)c1ccc(Cl)cc1Cl (stereo not drawn) , readout=GI50) returns > 100 µM (inactive)

What the record says about CC(=O)N/N=C1\NC(=O)C[C@H]2[C@@H]3CC=C4C[C@@H](OC(C)=O)CC[C@]4(C)[C@H]3CC[C@]12C : GI50 is 21.5 µM (inactive)
